Molecular target: JAK3 (Homo sapiens (Human), UniProt P52333)
Sequence (P52333 whole entry): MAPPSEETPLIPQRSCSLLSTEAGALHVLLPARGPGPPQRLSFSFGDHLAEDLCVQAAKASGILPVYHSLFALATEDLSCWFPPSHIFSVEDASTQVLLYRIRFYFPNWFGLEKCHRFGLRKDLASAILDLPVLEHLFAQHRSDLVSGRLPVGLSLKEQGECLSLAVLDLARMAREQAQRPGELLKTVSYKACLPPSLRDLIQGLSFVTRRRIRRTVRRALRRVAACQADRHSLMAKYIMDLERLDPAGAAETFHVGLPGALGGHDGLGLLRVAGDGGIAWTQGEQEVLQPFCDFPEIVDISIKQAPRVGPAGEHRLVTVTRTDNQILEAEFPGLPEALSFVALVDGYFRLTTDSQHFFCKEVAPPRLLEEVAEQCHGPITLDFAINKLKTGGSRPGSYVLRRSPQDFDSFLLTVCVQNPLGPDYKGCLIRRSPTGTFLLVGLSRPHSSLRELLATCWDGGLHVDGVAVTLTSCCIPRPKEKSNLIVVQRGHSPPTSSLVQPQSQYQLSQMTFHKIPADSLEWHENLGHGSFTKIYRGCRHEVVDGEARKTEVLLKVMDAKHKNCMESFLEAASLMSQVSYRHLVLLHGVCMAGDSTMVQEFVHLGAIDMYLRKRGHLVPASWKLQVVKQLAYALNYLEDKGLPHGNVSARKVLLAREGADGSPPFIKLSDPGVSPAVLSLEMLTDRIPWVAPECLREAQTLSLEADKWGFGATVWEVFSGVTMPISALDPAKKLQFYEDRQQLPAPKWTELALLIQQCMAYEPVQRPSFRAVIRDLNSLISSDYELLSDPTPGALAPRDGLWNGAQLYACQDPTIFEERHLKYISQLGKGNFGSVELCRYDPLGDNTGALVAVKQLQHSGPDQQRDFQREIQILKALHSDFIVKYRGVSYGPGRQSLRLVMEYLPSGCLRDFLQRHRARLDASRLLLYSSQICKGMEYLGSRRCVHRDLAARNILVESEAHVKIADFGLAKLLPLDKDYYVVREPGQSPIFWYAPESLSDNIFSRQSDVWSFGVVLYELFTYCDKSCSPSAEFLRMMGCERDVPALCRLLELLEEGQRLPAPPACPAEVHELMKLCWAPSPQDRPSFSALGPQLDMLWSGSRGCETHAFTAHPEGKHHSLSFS
Experiment: Inhibition of JAK3, luminescence kinase assay (ADP-Glo)
Details: purified recombinant JAK3
Procedure: The study of the effect of compounds on the activity of purified recombinant JAK was performed by studying the inhibitory activity of the compounds on JAK from the enzymatic level. The experimental principle is to use a luminescence kinase assay to detect the ADP content produced by the reaction of JAK with the substrate Poly (4:1 Glu, Tyr) peptide: after ADP is converted to ATP, ATP can act as a substrate for the Ultra-Glo luciferase catalytic reaction, producing an optical signal. […]
pIC50: −log10 of the molar value.

[
  {
    "Smiles Notation": "CCS(=O)(=O)N1CC(CC(N)=O)(n2cc(-c3c[nH]c4ncccc34)cn2)C1",
    "pIC50": "< 7.30"
  },
  {
    "Smiles Notation": "O=C(NCC(F)(F)F)C1(Nc2nc(-c3c[nH]c4ncccc34)ncc2F)CCN(S(=O)(=O)C2CC2)CC1",
    "pIC50": "7.30 to 7.70"
  },
  {
    "Smiles Notation": "N#CC1(Nc2ccnc(-c3c[nH]c4ncccc34)n2)CCCC1",
    "pIC50": "7.30 to 7.70"
  },
  {
    "Smiles Notation": "CS(=O)(=O)N1CCC(CC(=O)NCC(F)(F)F)(n2cc(-c3ncnc4[nH]ccc34)cn2)CC1",
    "pIC50": "< 7.30"
  },
  {
    "Smiles Notation": "CC(C)(CC(=O)NCC(F)(F)F)n1cc(-c2ncnc3[nH]ccc23)cn1",
    "pIC50": "> 7.70"
  },
  {
    "Smiles Notation": "CCS(=O)(=O)N1CC(CC(N)=O)(n2cc(-c3ccnc4[nH]ccc34)cn2)C1",
    "pIC50": "< 7.30"
  },
  {
    "Smiles Notation": "CNC(=O)CC1(n2cc(-c3ncnc4[nH]ccc34)cn2)CN(S(C)(=O)=O)C1",
    "pIC50": "< 7.30"
  },
  {
    "Smiles Notation": "N#CCC1(n2cc(-c3c[nH]c4ncccc34)cn2)CCS(=O)(=O)CC1",
    "pIC50": "< 7.30"
  }
]

* * *

target: JAK3 (Homo sapiens (Human)); experiment: Inhibition of JAK3, luminescence kinase assay (ADP-Glo); settings: purified recombinant JAK3
Quantity Name: IC50

[
  {
    "Smiles Notation": "CCS(=O)(=O)N1CC(C#N)(Nc2ccnc(-c3c[nH]c4ncccc34)n2)C1",
    "Quantity Name": "IC50",
    "Meas Value": "20 to 50 nM"
  },
  {
    "Smiles Notation": "CS(=O)(=O)N1CC(C#N)(Nc2ccnc(-c3c[nH]c4ncccc34)n2)C1",
    "Quantity Name": "IC50",
    "Meas Value": "> 50 nM"
  },
  {
    "Smiles Notation": "CS(=O)(=O)N1CCC(Nc2ccnc(-c3c[nH]c4ncccc34)n2)(C(=O)NCC(F)(F)F)CC1",
    "Quantity Name": "IC50",
    "Meas Value": "20 to 50 nM"
  },
  {
    "Smiles Notation": "CC[C@](C)(C#N)Nc1ccnc(-c2c[nH]c3ncccc23)n1",
    "Quantity Name": "IC50",
    "Meas Value": "20 to 50 nM"
  }
]

* * *

biological target: JAK1 (Homo sapiens (Human), UniProt P23458); experiment: Inhibition of JAK1, luminescence kinase assay (ADP-Glo); conditions: purified recombinant JAK1
Sequence (P23458 whole entry): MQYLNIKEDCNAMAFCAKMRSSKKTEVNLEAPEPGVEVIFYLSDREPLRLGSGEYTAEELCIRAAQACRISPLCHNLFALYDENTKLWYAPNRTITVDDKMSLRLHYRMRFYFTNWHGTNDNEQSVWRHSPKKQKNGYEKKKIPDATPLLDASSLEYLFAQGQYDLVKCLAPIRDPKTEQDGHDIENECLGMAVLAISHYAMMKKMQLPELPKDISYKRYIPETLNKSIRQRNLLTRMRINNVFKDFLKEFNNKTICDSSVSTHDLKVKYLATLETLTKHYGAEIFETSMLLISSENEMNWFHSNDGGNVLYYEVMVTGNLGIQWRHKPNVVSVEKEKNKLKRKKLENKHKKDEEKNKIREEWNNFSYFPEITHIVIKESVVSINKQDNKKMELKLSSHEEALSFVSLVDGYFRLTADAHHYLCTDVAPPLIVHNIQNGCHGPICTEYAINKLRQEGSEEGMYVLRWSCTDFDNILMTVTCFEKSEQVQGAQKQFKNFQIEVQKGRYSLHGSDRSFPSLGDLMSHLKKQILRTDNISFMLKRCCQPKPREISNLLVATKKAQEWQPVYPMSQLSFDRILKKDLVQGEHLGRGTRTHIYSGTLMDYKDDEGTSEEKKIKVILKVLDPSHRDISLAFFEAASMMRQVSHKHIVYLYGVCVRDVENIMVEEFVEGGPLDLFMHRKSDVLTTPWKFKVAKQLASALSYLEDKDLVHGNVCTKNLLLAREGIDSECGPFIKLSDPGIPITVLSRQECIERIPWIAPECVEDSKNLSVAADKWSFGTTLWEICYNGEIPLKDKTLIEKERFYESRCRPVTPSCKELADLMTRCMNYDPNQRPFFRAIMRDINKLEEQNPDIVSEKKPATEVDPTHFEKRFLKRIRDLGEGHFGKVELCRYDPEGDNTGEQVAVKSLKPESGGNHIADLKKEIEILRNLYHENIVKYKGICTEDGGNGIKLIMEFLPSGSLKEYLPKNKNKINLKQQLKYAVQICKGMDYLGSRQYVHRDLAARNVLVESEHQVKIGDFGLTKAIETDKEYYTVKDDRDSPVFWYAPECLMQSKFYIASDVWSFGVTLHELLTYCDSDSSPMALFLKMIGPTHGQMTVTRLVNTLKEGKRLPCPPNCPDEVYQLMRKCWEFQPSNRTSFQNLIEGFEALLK
Quantity Name: IC50

[
  {
    "Smiles Notation": "O=C(CC1(n2cc(-c3ncnc4[nH]ccc34)cn2)CCCC1)NCC(F)(F)F",
    "Meas Value": "20 to 50 nM"
  },
  {
    "Smiles Notation": "CCS(=O)(=O)N1CC(CC(=O)NCC(F)(F)F)(n2cc(-c3ccnc4[nH]ccc34)cn2)C1",
    "Meas Value": "> 50 nM"
  },
  {
    "Smiles Notation": "CS(=O)(=O)N1CCC(Nc2ccnc(-c3c[nH]c4ncccc34)n2)(C(=O)NCC(F)(F)F)CC1",
    "Meas Value": "> 50 nM"
  },
  {
    "Smiles Notation": "CCS(=O)(=O)N1CC(CC(=O)NCC(F)(F)F)(n2cc(-c3c[nH]c4ncccc34)cn2)C1",
    "Meas Value": "> 50 nM"
  }
]

* * *

biological target: JAK1 (Homo sapiens (Human)); assay: Inhibition of JAK1, luminescence kinase assay (ADP-Glo); conditions: purified recombinant JAK1
pIC50: −log10 of the molar value.

[
  {
    "Molecule": "NC(=O)CC1(n2cc(-c3c[nH]c4ncccc34)cn2)CCS(=O)(=O)CC1 [Example 18]",
    "pIC50": "> 7.70"
  },
  {
    "Molecule": "N#CC1(Nc2ccnc(-c3c[nH]c4ncccc34)n2)CCS(=O)(=O)CC1 [Example 51]",
    "pIC50": "< 7.30"
  },
  {
    "Molecule": "N#CCC1(n2cc(-c3c[nH]c4ncccc34)cn2)CCS(=O)(=O)CC1 [Example 2]",
    "pIC50": "> 7.70"
  },
  {
    "Molecule": "CS(=O)(=O)N1CC(C#N)(Nc2ccnc(-c3ccnc4[nH]ccc34)n2)C1 [Example 50]",
    "pIC50": "< 7.30"
  },
  {
    "Molecule": "CS(=O)(=O)N1CC(Nc2ccnc(-c3c[nH]c4ncccc34)n2)(C(=O)NCC(F)(F)F)C1 [Example 31]",
    "pIC50": "< 7.30"
  },
  {
    "Molecule": "O=C(CC1(n2cc(-c3c[nH]c4ncccc34)cn2)CCCC1)NCC(F)(F)F [Example 25]",
    "pIC50": "7.30 to 7.70"
  },
  {
    "Molecule": "O=C(NCC(F)(F)F)C1(Nc2nc(-c3c[nH]c4ncccc34)ncc2F)CCS(=O)(=O)CC1 [Example 44]",
    "pIC50": "< 7.30"
  },
  {
    "Molecule": "N#CC1(Nc2ccnc(-c3ncnc4[nH]ccc34)n2)CCCC1 [Example 58]",
    "pIC50": "< 7.30"
  },
  {
    "Molecule": "CC[C@](C)(C#N)Nc1ccnc(-c2ncnc3[nH]ccc23)n1 [Example 61]",
    "pIC50": "< 7.30"
  },
  {
    "Molecule": "CS(=O)(=O)N1CC(Nc2nc(-c3c[nH]c4ncccc34)ncc2F)(C(=O)NCC(F)(F)F)C1 [Example 34]",
    "pIC50": "< 7.30"
  },
  {
    "Molecule": "CC(C)(CC(=O)NCC(F)(F)F)n1cc(-c2c[nH]c3ncccc23)cn1 [Example 28]",
    "pIC50": "< 7.30"
  },
  {
    "Molecule": "CS(=O)(=O)N1CCC(CC(=O)NCC(F)(F)F)(n2cc(-c3ncnc4[nH]ccc34)cn2)CC1 [Example 23]",
    "pIC50": "7.30 to 7.70"
  },
  {
    "Molecule": "CCS(=O)(=O)N1CC(Nc2ccnc(-c3c[nH]c4ncccc34)n2)(C(=O)NCC(F)(F)F)C1 [Example 32]",
    "pIC50": "< 7.30"
  },
  {
    "Molecule": "CCS(=O)(=O)N1CC(C#N)(Nc2ccnc(-c3ncnc4[nH]ccc34)n2)C1 [Example 46]",
    "pIC50": "< 7.30"
  },
  {
    "Molecule": "CS(=O)(=O)N1CC(C#N)(Nc2ccnc(-c3ncnc4[nH]ccc34)n2)C1 [Example 49]",
    "pIC50": "< 7.30"
  },
  {
    "Molecule": "CCS(=O)(=O)N1CC(CC(=O)NC)(n2cc(-c3ccnc4[nH]ccc34)cn2)C1 [Example 10]",
    "pIC50": "< 7.30"
  },
  {
    "Molecule": "CS(=O)(=O)N1CC(CC(=O)NCC(F)(F)F)(n2cc(-c3ncnc4[nH]ccc34)cn2)C1 [Example 12]",
    "pIC50": "7.30 to 7.70"
  },
  {
    "Molecule": "CCS(=O)(=O)N1CC(CC(N)=O)(n2cc(-c3c[nH]c4ncccc34)cn2)C1 [Example 6]",
    "pIC50": "< 7.30"
  },
  {
    "Molecule": "O=C(CC1(n2cc(-c3ccnc4[nH]ccc34)cn2)CCCC1)NCC(F)(F)F [Example 27]",
    "pIC50": "7.30 to 7.70"
  },
  {
    "Molecule": "N#CC1(Nc2ccnc(-c3ccnc4[nH]ccc34)n2)CCC1 [Example 56]",
    "pIC50": "< 7.30"
  },
  {
    "Molecule": "CC[C@](C)(C#N)Nc1ccnc(-c2ccnc3[nH]ccc23)n1 [Example 62]",
    "pIC50": "< 7.30"
  },
  {
    "Molecule": "CCS(=O)(=O)N1CC(CC(=O)NCC(F)(F)F)(n2cc(-c3ncnc4[nH]ccc34)cn2)C1 [Example 8]",
    "pIC50": "< 7.30"
  },
  {
    "Molecule": "CCS(=O)(=O)N1CC(CC(N)=O)(n2cc(-c3ccnc4[nH]ccc34)cn2)C1 [Example 11]",
    "pIC50": "< 7.30"
  },
  {
    "Molecule": "CC(C)(CC(=O)NCC(F)(F)F)n1cc(-c2ncnc3[nH]ccc23)cn1 [Example 29]",
    "pIC50": "< 7.30"
  },
  {
    "Molecule": "CS(=O)(=O)N1CCC(CC(=O)NCC(F)(F)F)(n2cc(-c3c[nH]c4ncccc34)cn2)CC1 [Example 22]",
    "pIC50": "< 7.30"
  },
  {
    "Molecule": "CS(=O)(=O)N1CC(CC(N)=O)(n2cc(-c3ncnc4[nH]ccc34)cn2)C1 [Example 14]",
    "pIC50": "7.30 to 7.70"
  },
  {
    "Molecule": "N#CC1(Nc2ccnc(-c3ccnc4[nH]ccc34)n2)CCCC1 [Example 59]",
    "pIC50": "< 7.30"
  },
  {
    "Molecule": "CC[C@](C)(C#N)Nc1ccnc(-c2c[nH]c3ncccc23)n1 [Example 60]",
    "pIC50": "< 7.30"
  },
  {
    "Molecule": "O=C(NCC(F)(F)F)C1(Nc2ccnc(-c3c[nH]c4ncccc34)n2)CN(S(=O)(=O)C2CC2)C1 [Example 33]",
    "pIC50": "< 7.30"
  },
  {
    "Molecule": "CS(=O)(=O)N1CC(CC(=O)NCC(F)(F)F)(n2cc(-c3ccnc4[nH]ccc34)cn2)C1 [Example 15]",
    "pIC50": "> 7.70"
  },
  {
    "Molecule": "CS(=O)(=O)N1CCC(CC#N)(n2cc(-c3c[nH]c4ncccc34)cn2)CC1 [Example 5]",
    "pIC50": "> 7.70"
  },
  {
    "Molecule": "O=C(NCC(F)(F)F)C1(Nc2ccnc(-c3c[nH]c4ncccc34)n2)CCN(S(=O)(=O)C2CC2)CC1 [Example 39]",
    "pIC50": "< 7.30"
  },
  {
    "Molecule": "O=C(NCC(F)(F)F)C1(Nc2nc(-c3c[nH]c4ncccc34)ncc2F)CCN(S(=O)(=O)C2CC2)CC1 [Example 42]",
    "pIC50": "< 7.30"
  }
]

Attribution: patent US11414413B2
